Test system: Escherichia coli
assayComment: Antibacterial activity against mucosa-associated Escherichia coli isolates isolated from patients with Crohn's disease by disk diffusion method
Assay type: functional
Activity strictly less than 70% = true. Otherwise false.

[
  {
    "compoundString": "CC1(C)S[C@@H]2[C@H](NC(=O)[C@H](N)c3ccccc3)C(=O)N2[C@H]1C(=O)O",
    "classification": "false"
  },
  {
    "compoundString": "O=C(N[C@H](CO)[C@H](O)c1ccc([N+](=O)[O-])cc1)C(Cl)Cl",
    "classification": "true"
  },
  {
    "compoundString": "CN(C)[C@@H]1C(O)=C(C(N)=O)C(=O)[C@@]2(O)C(O)=C3C(=O)c4c(O)cccc4[C@@](C)(O)[C@H]3C[C@@H]12",
    "classification": "true"
  },
  {
    "compoundString": "COc1cc(Cc2cnc(N)nc2N)cc(OC)c1OC",
    "classification": "false"
  },
  {
    "compoundString": "CC1(C)S[C@@H]2[C@H](NC(=O)Cc3ccccc3)C(=O)N2[C@H]1C(=O)O",
    "classification": "true"
  },
  {
    "compoundString": "CCn1cc(C(=O)O)c(=O)c2ccc(C)nc21",
    "classification": "false"
  }
]
